Entry source: patent US20240285615A1

experiment: Phase 1 Part 2: cerebrospinal fluid (CSF) pharmacokinetics after multiple BID doses; format: in vivo, human; conditions: both sexes, human, oral; CSF, 250 mg BID, Day 12, elderly subjects, arithmetic mean; read-out: AUC0-tau
reported.metric: AUC
The reply should consist of the numeric value with the unit placed after it.

# compound CC(=O)Nc1nnc(N2CCN([C@@H](C)c3ccc4c(c3)OCO4)CC2)s1 [Compound (I)] ; its AUC = 485 ng·h/mL

* * *

experiment: Phase 1 Part 2: cerebrospinal fluid (CSF) pharmacokinetics after multiple BID doses; assay type: in vivo, human; conditions: human, oral; CSF, 100 mg BID, Day 12, elderly subjects, N=1; read-out: t1/2 (converted)
reported.metric: half-life (h)
Dear colleague, please return just the value in h, with no unit written.

# compound "CC(=O)Nc1nnc(N2CCN([C@@H](C)c3ccc4c(c3)OCO4)CC2)s1" ; its half-life = 5.78

* * *

assay: Phase 1 Part 2: multiple BID doses for 12 days, plasma pharmacokinetics; format: in vivo, human; conditions: both sexes, human, plasma, oral, 100 mg, 100 mg BID, Day 1, elderly subjects, plasma, arithmetic mean; read-out: t1/2 (converted)
reported.metric: half-life (h)
Dear colleague, please return just the value in h, with no unit written.

# molecule "CC(=O)Nc1nnc(N2CCN([C@@H](C)c3ccc4c(c3)OCO4)CC2)s1" ; its half-life = 3.9

* * *

assay: Phase 1 Part 2: multiple BID doses for 12 days, plasma pharmacokinetics; assay type: in vivo, human; conditions: both sexes, human, plasma, oral, 100 mg, 100 mg BID, Day 12, elderly subjects, plasma, median (min, max)
reported.metric: Tmax (h)
Dear colleague, please return just the value in h, with no unit written.

# compound CC(=O)Nc1nnc(N2CCN([C@@H](C)c3ccc4c(c3)OCO4)CC2)s1 [Compound (I)] ; its Tmax = 2.25

* * *

assay: Phase 1 Part 1a: single rising oral doses, fasted, plasma pharmacokinetics; type: in vivo, human; conditions: human; single oral dose 300 mg, fasted, healthy male subjects, plasma, arithmetic mean
reported.metric: AUC(0-inf) (ng·h/mL)
Dear colleague, please return just the value in ng·h/mL, with no unit written.

# compound CC(=O)Nc1nnc(N2CCN([C@@H](C)c3ccc4c(c3)OCO4)CC2)s1 [Compound (I)] ; its AUC(0-inf) = 15400

* * *

assay: Phase 1 Part 1a: single rising oral doses, fasted, plasma pharmacokinetics; format: in vivo, human; settings: male, human, plasma, oral; single dose 20 mg to 1000 mg; read-out: median Tmax, range over dose levels
reported.metric: Tmax

# compound "CC(=O)Nc1nnc(N2CCN([C@@H](C)c3ccc4c(c3)OCO4)CC2)s1" ; its Tmax = 0.5 to 1.5 h

* * *

assay: Phase 1 Part 2: multiple BID doses for 12 days, plasma pharmacokinetics; assay type: in vivo, human; details: both sexes, human, plasma, oral, 250 mg, 250 mg BID, Day 1, tau 12 h, elderly subjects, plasma, arithmetic mean; read-out: AUC0-tau
reported.metric: AUC (ng·h/mL)
Dear colleague, please return just the value in ng·h/mL, with no unit written.

# molecule "CC(=O)Nc1nnc(N2CCN([C@@H](C)c3ccc4c(c3)OCO4)CC2)s1" ; its AUC = 10700

* * *

test: Phase 1 Part 1a: single rising oral doses, fasted, plasma pharmacokinetics; format: in vivo, human; settings: human; single oral dose 600 mg, fasted, healthy male subjects, plasma, arithmetic mean
reported.metric: Cmax (ng/mL)
Dear colleague, please return just the value in ng/mL, with no unit written.

# compound "CC(=O)Nc1nnc(N2CCN([C@@H](C)c3ccc4c(c3)OCO4)CC2)s1" ; its Cmax = 7180
